Experiment: Compound was tested for activation of Glutamate decarboxylase which is the ratio of Vmax in the presence of activators to the Vmax in the absence of activators at a concentration of 500 uM.
assayEndpoint: Activity

molecule="CC(CN)CC(=O)O (centres undefined)" assayendpoint=Activity measured=142
molecule="CC(C)(C)C(CN)CC(=O)O (centres undefined)" assayendpoint=Activity measured=147
molecule=C[C@@H](CN)CC(=O)O assayendpoint=Activity measured=185
molecule=CCCC(CCC)C(=O)O assayendpoint=Activity measured=124

----------
Assay: Tested for activation of Glutamate decarboxylase; the ratio of Vmax in the presence of activators to the Vmax in the absence of activators at a concentration of 250 uM.
The following compounds are shown together with reported Activity values.
assayEndpoint: Activity

compound=CC(C)(CN)CC(=O)O measured=109
compound=NCC1(CC(=O)O)CCCCC1 measured=105
compound=C[C@H](CN)CC(=O)O measured=103
compound=CCCCCNCC(N)=O measured=126
compound="CCCCC(CN)CC(=O)O (centres undefined)" measured=105
compound="CC(C)(C)CC(CN)CC(=O)O (centres undefined)" measured=130
compound="CC(C)CCC(CN)CC(=O)O (centres undefined)" measured=109
compound="CC(C)C(CN)CC(=O)O (centres undefined)" measured=104
compound="CCC(C)C(CN)CC(=O)O (centres undefined)" measured=105
compound="CCC(CN)CC(=O)O (centres undefined)" measured=108
compound="NCC(CC(=O)O)C1CCCCC1 (centres undefined)" measured=100
compound="CC(C)CC(CN)CC(=O)O (centres undefined)" measured=109
compound="CCCC(CN)CC(=O)O (centres undefined)" measured=105
compound="CC(CN)CC(=O)O (centres undefined)" measured=128

----------
Assay: Tested for activation of Glutamate decarboxylase; the ratio of Vmax in the presence of activators to the Vmax in the absence of activators at a concentration of 2.5 mM.
Param threshold (200) applies to Activity; output class 1 when value >= threshold, class 0 when value < threshold.

compound=C[C@@H](CN)CC(=O)O group="class 1"
compound="CC(C)(C)CC(CN)CC(=O)O (stereo unspecified)" group="class 1"
compound=CCCC(CCC)C(=O)O group="class 1"
compound="CCC(C)C(CN)CC(=O)O (stereo unspecified)" group="class 0"
compound="CCCCC(CN)CC(=O)O (stereo unspecified)" group="class 0"
compound="CCCC(CN)CC(=O)O (stereo unspecified)" group="class 0"
compound="CCC(CN)CC(=O)O (stereo unspecified)" group="class 0"
compound=C[C@H](CN)CC(=O)O group="class 0"
compound=CC(C)(CN)CC(=O)O group="class 0"
compound=NCC1(CC(=O)O)CCCCC1 group="class 0"
compound="CC(C)C(CN)CC(=O)O (stereo unspecified)" group="class 0"
compound="CC(C)(C)C(CN)CC(=O)O (stereo unspecified)" group="class 1"
compound=CCCCCNCC(N)=O group="class 1"
compound="NCC(CC(=O)O)C1CCCCC1 (stereo unspecified)" group="class 0"
compound="CC(CN)CC(=O)O (stereo unspecified)" group="class 1"
compound="CC(C)CCC(CN)CC(=O)O (stereo unspecified)" group="class 0"

----------
Assay: Tested for activation of Glutamate decarboxylase; the ratio of Vmax in the presence of activators to the Vmax in the absence of activators at a concentration of 1.0 mM.
The following molecules are shown together with reported Activity values.
assayEndpoint: Activity

molecule=CCCC(CCC)C(=O)O assayendpoint=Activity measured=138
molecule="CCCC(CN)CC(=O)O (stereo unspecified)" assayendpoint=Activity measured=112
molecule=CC(C)(CN)CC(=O)O assayendpoint=Activity measured=125
molecule="CC(CN)CC(=O)O (stereo unspecified)" assayendpoint=Activity measured=168
molecule="CC(C)C(CN)CC(=O)O (stereo unspecified)" assayendpoint=Activity measured=108
molecule="NCC(CC(=O)O)C1CCCCC1 (stereo unspecified)" assayendpoint=Activity measured=100
molecule="CC(C)(C)CC(CN)CC(=O)O (stereo unspecified)" assayendpoint=Activity measured=181
molecule=C[C@@H](CN)CC(=O)O assayendpoint=Activity measured=202
molecule=NCC1(CC(=O)O)CCCCC1 assayendpoint=Activity measured=145
molecule="CC(C)CCC(CN)CC(=O)O (stereo unspecified)" assayendpoint=Activity measured=118
molecule="CCC(C)C(CN)CC(=O)O (stereo unspecified)" assayendpoint=Activity measured=119
molecule="CCCCC(CN)CC(=O)O (stereo unspecified)" assayendpoint=Activity measured=117
molecule="CC(C)(C)C(CN)CC(=O)O (stereo unspecified)" assayendpoint=Activity measured=174
molecule=C[C@H](CN)CC(=O)O assayendpoint=Activity measured=118
molecule=CCCCCNCC(N)=O assayendpoint=Activity measured=170
molecule="CCC(CN)CC(=O)O (stereo unspecified)" assayendpoint=Activity measured=128
